Data origin: ChEMBL document CHEMBL1123430

System: Rattus norvegicus
Assay: Polyacrylamide Gel Electrophoresis (PAGE) analysis of rat plasma 5 minutes after intravenous administration of radiolabeled compound in stacking gel
Assay type: functional, organism-based

| compound | Concentration |
| --- | --- |
| CCCCCCCCCCCCCCCC(=O)OCC(COC(=O)CCCCCCCCCCCCCCC)OC(=O)CCCCCCCCCCCCCCCCc1c(I)cc(I)c(N)c1I | 4.6% |
| Nc1c(I)cc(I)c(CCCCCCCCCCCCCCCCC(=O)O)c1I | 5.2% |
| Nc1c(I)cc(I)c(CCC(=O)O)c1I | 4.6% |
| CCC(Cc1c(I)cc(I)c(N)c1I)C(=O)O (centres undefined) | 0.6% |
| CCCCCCCCCCCCCCCC(=O)OCC(COC(=O)CCCCCCCCCCCCCCC)OC(=O)C(CC)Cc1c(I)cc(I)c(N)c1I (centres undefined) | 4.6% |
| Nc1c(I)cc(I)c(CC(=O)O)c1I | 1.7% |
| CCCCCCCCCCCCCCCC(=O)OCC(COC(=O)CCCCCCCCCCCCCCC)OC(=O)CCCCCCCCCCCc1c(I)cc(I)c(N)c1I | 6.9% |
| CCCCCCCCCCCCCCCC(=O)OCC(COC(=O)CCCCCCCCCCCCCCC)OC(=O)Cc1c(I)cc(I)c(N)c1I | 9% |
| CCCCCCCCCCCCCCCC(=O)OCC(COC(=O)CCCCCCCCCCCCCCC)OC(=O)CCc1c(I)cc(I)c(N)c1I | 4.6% |

====

Tested on: Rattus norvegicus
Test: Percentage […]/CH3OH extract of the radiolabeled compound in rat liver 5 minutes after iv administration
Format: functional

| molecule | target desc | Activity / % |
| --- | --- | --- |
| CCCCCCCCCCCCCCCC(=O)OCC(COC(=O)CCCCCCCCCCCCCCC)OC(=O)C(CC)Cc1c(I)cc(I)c(N)c1I (centres undefined) | Rattus norvegicus | 84.4 |
| CCCCCCCCCCCCCCCC(=O)OCC(COC(=O)CCCCCCCCCCCCCCC)OC(=O)Cc1c(I)cc(I)c(N)c1I | Rattus norvegicus | 91.2 |
| CCCCCCCCCCCCCCCC(=O)OCC(COC(=O)CCCCCCCCCCCCCCC)OC(=O)CCCCCCCCCCCCCCCCc1c(I)cc(I)c(N)c1I | Rattus norvegicus | 44.3 |
| CCCCCCCCCCCCCCCC(=O)OCC(COC(=O)CCCCCCCCCCCCCCC)OC(=O)CCCCCCCCCCCc1c(I)cc(I)c(N)c1I | Rattus norvegicus | 40.9 |

====

Tested on: Rattus norvegicus
Assay: Percentage […]/CH3OH extract of the radiolabeled compound in rat plasma 30 minutes after iv administration
Type: functional

| compound | Activity / % |
| --- | --- |
| CCCCCCCCCCCCCCCC(=O)OCC(COC(=O)CCCCCCCCCCCCCCC)OC(=O)C(CC)Cc1c(I)cc(I)c(N)c1I (centres undefined) | 92.2 |
| CCCCCCCCCCCCCCCC(=O)OCC(COC(=O)CCCCCCCCCCCCCCC)OC(=O)CCCCCCCCCCCc1c(I)cc(I)c(N)c1I | 54.8 |
| CCCCCCCCCCCCCCCC(=O)OCC(COC(=O)CCCCCCCCCCCCCCC)OC(=O)Cc1c(I)cc(I)c(N)c1I | 81.5 |
| CCCCCCCCCCCCCCCC(=O)OCC(COC(=O)CCCCCCCCCCCCCCC)OC(=O)CCCCCCCCCCCCCCCCc1c(I)cc(I)c(N)c1I | 71.3 |

====

Test system: Rattus norvegicus
Assay: Distribution of radioactivity of radiolabeled compound in heart of female rats 5 minutes after intravenous administration
Type: ADME, organism-based
Conditions: in vivo
assay endpoint: Dose

| compound | reported |
| --- | --- |
| Nc1c(I)cc(I)c(CCCCCCCCCCCCCCCCC(=O)O)c1I | 1.06% |
| CCC(Cc1c(I)cc(I)c(N)c1I)C(=O)O (stereo unspecified) | 0.74% |
| Nc1c(I)cc(I)c(CCCCCCCCCCCC(=O)O)c1I | 1.15% |
| CCCCCCCCCCCCCCCC(=O)OCC(COC(=O)CCCCCCCCCCCCCCC)OC(=O)CCc1c(I)cc(I)c(N)c1I | 1.34% |
| Nc1c(I)cc(I)c(CCC(=O)O)c1I | 4% |
| Nc1c(I)cc(I)c(CC(=O)O)c1I | 1.09% |

====

Tested on: Rattus norvegicus
Assay: Polyacrylamide Gel Electrophoresis (PAGE) analysis of rat plasma 5 minutes after intravenous administration of radiolabeled compound (below albumin )
Format: functional, organism-based

| compound | Concentration |
| --- | --- |
| CCCCCCCCCCCCCCCC(=O)OCC(COC(=O)CCCCCCCCCCCCCCC)OC(=O)CCCCCCCCCCCc1c(I)cc(I)c(N)c1I | 3 |
| CCCCCCCCCCCCCCCC(=O)OCC(COC(=O)CCCCCCCCCCCCCCC)OC(=O)C(CC)Cc1c(I)cc(I)c(N)c1I (stereo unspecified) | 3 |
| Nc1c(I)cc(I)c(CCCCCCCCCCCC(=O)O)c1I | 4.8 |
| Nc1c(I)cc(I)c(CCC(=O)O)c1I | 4.1 |
| CCCCCCCCCCCCCCCC(=O)OCC(COC(=O)CCCCCCCCCCCCCCC)OC(=O)Cc1c(I)cc(I)c(N)c1I | 3.2 |
| Nc1c(I)cc(I)c(CC(=O)O)c1I | 5.5 |

====

# reported Dose; entries follow
System: Rattus norvegicus
Assay: Distribution of radioactivity of radiolabeled compound in blood of female rats 30 minutes after intravenous administration
Assay type: ADME, organism-based
Conditions: in vivo, 0.5 h
assay endpoint: Dose (%)

| compound | assay endpoint | reported |
| --- | --- | --- |
| CCCCCCCCCCCCCCCC(=O)OCC(COC(=O)CCCCCCCCCCCCCCC)OC(=O)CCCCCCCCCCCc1c(I)cc(I)c(N)c1I | Dose | 1.12 |
| CCCCCCCCCCCCCCCC(=O)OCC(COC(=O)CCCCCCCCCCCCCCC)OC(=O)Cc1c(I)cc(I)c(N)c1I | Dose | 6.5 |
| Nc1c(I)cc(I)c(CCCCCCCCCCCC(=O)O)c1I | Dose | 1.06 |
| Nc1c(I)cc(I)c(CC(=O)O)c1I | Dose | 2.41 |
| CCCCCCCCCCCCCCCC(=O)OCC(COC(=O)CCCCCCCCCCCCCCC)OC(=O)C(CC)Cc1c(I)cc(I)c(N)c1I (stereo not given) | Dose | 3.73 |
| CCC(Cc1c(I)cc(I)c(N)c1I)C(=O)O (stereo not given) [IOPANOIC ACID] | Dose | 1.21 |
| Nc1c(I)cc(I)c(CCC(=O)O)c1I | Dose | 1.15 |
| CCCCCCCCCCCCCCCC(=O)OCC(COC(=O)CCCCCCCCCCCCCCC)OC(=O)CCc1c(I)cc(I)c(N)c1I | Dose | 3.23 |
| CCCCCCCCCCCCCCCC(=O)OCC(COC(=O)CCCCCCCCCCCCCCC)OC(=O)CCCCCCCCCCCCCCCCc1c(I)cc(I)c(N)c1I | Dose | 1.42 |
| Nc1c(I)cc(I)c(CCCCCCCCCCCCCCCCC(=O)O)c1I | Dose | 1.23 |

====

System: Rattus norvegicus
Test: Distribution of radioactivity of radiolabeled compound in heart of female rats 30 minutes after intravenous administration
Type: ADME, organism-based
Settings: in vivo, 0.5 h
Documented Dose across a set of compounds

| smiles input | Dose / % |
| --- | --- |
| CCCCCCCCCCCCCCCC(=O)OCC(COC(=O)CCCCCCCCCCCCCCC)OC(=O)Cc1c(I)cc(I)c(N)c1I | 0.68 |
| CCCCCCCCCCCCCCCC(=O)OCC(COC(=O)CCCCCCCCCCCCCCC)OC(=O)CCCCCCCCCCCc1c(I)cc(I)c(N)c1I | 0.7 |
| Nc1c(I)cc(I)c(CC(=O)O)c1I | 0.72 |
